- System: LPS-induced NO production in RAW264.7 macrophages
- experiment: Nitric oxide inhibitory assay
- Format: cell-based, Murine
- reportedConditions: Mus musculus, RAW264.7, read-out: Nitric Oxide IC50
- Protocol: Murine RAW264.7 macrophages were cultured in DMEM medium containing 10% fetal bovine serum (FBS) and 1% penicillin at 37 °C, 5% CO2 [37]. The NO inhibitory assay was performed based on the reference method.
Below is a list of entries, each paired with its recorded IC50 value.
The figure you give is taken to be in µM; do not add the unit.

In the examples that follow, each entry is paired with its recorded IC50.
molecule	IC50 (µM)
C[C@@H]1O[C@@H](OC[C@H]2O[C@@H](Oc3c(-c4ccc(O)c(O)c4)oc4cc(O)cc(O)c4c3=O)[C@H](O)[C@@H](O)[C@@H]2O)[C@H](O)[C@H](O)[C@H]1O	9.89
O=c1c(O[C@@H]2O[C@H](CO)[C@H](O)[C@H](O)[C@H]2O)c(-c2ccc(O)c(O)c2)oc2cc(O)cc(O)c12 [Hyperoside (4), hyperoside]	18.9

Now for another entry.
Which IC50 is listed for O=c1c(O[C@@H]2O[C@H](CO)[C@@H](O)[C@H](O)[C@H]2O)c(-c2ccc(O)c(O)c2)oc2cc(O)cc(O)c12 ?
17
